assay: Kinetic solubility in bio-relevant media (SGF/FaSSGF, FaSSIF, FeSSIF) and H2O at 37° C., with pH of supernatant; format: physicochemical; conditions: SGF, 37 °C, pH 1.6, fassgf or other biorelevant, thermodynamic from solid, in SGF, 37° C.; read-out: solubility
Observation type: Solubility

Problem: Using the record for Cc1ccccc1-c1ccc(-c2cc(C(=O)O)c3c(c2)nnn3C)cc1 [free acid Form D] , report its Solubility.
Result: < 1 µg/mL

###

assay: Kinetic solubility in bio-relevant media (SGF/FaSSGF, FaSSIF, FeSSIF) and H2O at 37° C., with pH of supernatant; assay type: physicochemical; details: FeSSIF, 37 °C, pH 5, fessif, thermodynamic from solid, Table 12, FeSSIF, 2 h
Counter-ions that a name gives are not always drawn.
Observation type: solubility at 2 h (µg/mL)
I only need the number, in µg/mL, no unit after it.

Problem: Using the record for Cc1ccccc1-c1ccc(-c2cc(C(=O)O)c3c(c2)nnn3C)cc1 [Tris salt Form C] , report its solubility at 2 h.
Result: 40

###

test: Kinetic solubility in bio-relevant media (SGF/FaSSGF, FaSSIF, FeSSIF) and H2O at 37° C., with pH of supernatant; format: physicochemical; conditions: SGF, FaSSIF and FeSSIF, 37 °C, fassgf or other biorelevant, thermodynamic from solid, all SGF/FaSSIF/FeSSIF media, at 24 hours point
Counter-ions that a name gives are not always drawn.
Observation type: solubility at 24 h

Problem: Using the record for Cc1ccccc1-c1ccc(-c2cc(C(=O)O)c3c(c2)nnn3C)cc1 [Tris salt Form A] , report its solubility at 24 h.
Result: > 100 µg/mL

###

assay: Kinetic solubility in bio-relevant media (SGF/FaSSGF, FaSSIF, FeSSIF) and H2O at 37° C., with pH of supernatant; assay type: physicochemical; settings: FaSSIF and FeSSIF, 37 °C, fassgf or other biorelevant, thermodynamic from solid, in FaSSIF and FeSSIF, 37° C.; read-out: solubility
Observation type: Solubility

Problem: Using the record for Cc1ccccc1-c1ccc(-c2cc(C(=O)O)c3c(c2)nnn3C)cc1 [free acid Form D] , report its Solubility.
Result: 3 to 8 µg/mL

###

test: Kinetic solubility in bio-relevant media (SGF/FaSSGF, FaSSIF, FeSSIF) and H2O at 37° C., with pH of supernatant; assay type: physicochemical; settings: FeSSIF, 37 °C, pH 5, fessif, thermodynamic from solid, Table 12, FeSSIF, 15 min
Where a name gives a salt, the structure may show the parent alone.
Observation type: solubility at 15 min
Output should be the measured figure followed by the unit it is expressed in.

Problem: Using the record for Cc1ccccc1-c1ccc(-c2cc(C(=O)O)c3c(c2)nnn3C)cc1 [Tris salt Form C] , report its solubility at 15 min.
Result: 330 µg/mL

###

assay: Kinetic solubility in bio-relevant media (SGF/FaSSGF, FaSSIF, FeSSIF) and H2O at 37° C., with pH of supernatant; type: physicochemical; settings: FaSSIF, 37 °C, pH 6.5, fassif, thermodynamic from solid, Table 12, FaSSIF, 1 h
Where a name gives a salt, the structure may show the parent alone.
Observation type: solubility at 1 h (µg/mL)
I only need the number, in µg/mL, no unit after it.

Problem: Using the record for Cc1ccccc1-c1ccc(-c2cc(C(=O)O)c3c(c2)nnn3C)cc1 [Tris salt Form C] , report its solubility at 1 h.
Result: 250
